Origin of measurements: patent US20240228481A1

Target: QR2 (Homo sapiens, UniProt P16083)
Sequence (P16083 whole entry): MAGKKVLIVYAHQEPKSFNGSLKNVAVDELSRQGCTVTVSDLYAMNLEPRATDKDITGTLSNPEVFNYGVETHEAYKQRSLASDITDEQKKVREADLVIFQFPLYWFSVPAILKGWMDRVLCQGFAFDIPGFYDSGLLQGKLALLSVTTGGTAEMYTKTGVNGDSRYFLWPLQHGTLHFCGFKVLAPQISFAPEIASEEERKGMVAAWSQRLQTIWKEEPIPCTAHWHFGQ
Assay: QR2 enzymatic activity assay (menadione/BNAH), fluorescence readout
Format: biochemical
Set-up: purchased Sigma-Aldrich
Counter-ions that a name gives are not always drawn.
measure-name: IC50 (µM)

// worked examples, IC50 included
| molecule | experimental-target | unit-of-measure | IC50 |
| --- | --- | --- | --- |
| Cc1ccn2cc(-c3ccc(C)c(S(=O)(=O)N4CCC(C)CC4)c3)nc2c1 [PCM-0214339] | QR2 (Homo sapiens, UniProt P16083) | µM | 3.96 |
| CCN(CC)S(=O)(=O)c1cc(-c2nnc(-c3ccccc3)o2)ccc1C [PCM-0127546] | QR2 (Homo sapiens, UniProt P16083) | µM | 4.82 |
| Cc1cc(-c2ccc(C)c(S(=O)(=O)N3CCCC3)c2)on1 [PCM-0212386] | QR2 (Homo sapiens, UniProt P16083) | µM | 0.42 |
| Cc1cccn2cc(-c3cccc(S(=O)(=O)NCCCN4CCCC4=O)c3)nc12 [PCM-0213794] | QR2 (Homo sapiens, UniProt P16083) | µM | 0.25 |
| Cc1c(C)c(C)c(S(=O)(=O)N2CCNC(=O)C2)c(C)c1C [PCM-0083647] | QR2 (Homo sapiens, UniProt P16083) | µM | 7.04 |
| Cc1cccn2cc(-c3cccc(S(=O)(=O)N4CCC(C)CC4)c3)nc12 [YB-800] | QR2 (Homo sapiens, UniProt P16083) | µM | 0.03 |
| Cc1ccn2cc(-c3cccc(S(=O)(=O)NCc4cccnc4)c3)nc2c1 [PCM-0213812] | QR2 (Homo sapiens, UniProt P16083) | µM | 9.62 |
| Cc1ccc(-c2cn3cccc(C)c3n2)cc1S(=O)(=O)N1CCNCC1 [YB-537, hydrochloride] | QR2 (Homo sapiens, UniProt P16083) | µM | 0.03 |
| CCOC(=O)C1CCN(S(=O)(=O)c2cc(-c3csc(C)n3)ccc2C)CC1 [PCM-0197024] | QR2 (Homo sapiens, UniProt P16083) | µM | 4.16 |
| Cc1ccc(-c2nnc(-c3ccccc3)o2)cc1S(=O)(=O)N(C)C [PCM-0127506] | QR2 (Homo sapiens, UniProt P16083) | µM | 2.2 |

P = Cc1cc(-c2ccc(C)c(S(=O)(=O)NCC3CCN(Cc4ccco4)CC3)c2)on1 [PCM-0136246]
Q = Cc1cccn2cc(-c3cccc(S(=O)(=O)N(C)C)c3)nc12 [PCM-0213804]
Qu. Lowest IC50? choose P or Q Refer to your chosen entry by its label in the reply.
Ans. Q

P = Cc1nc(-c2ccc(C)c(S(=O)(=O)N(C)C)c2)cs1 [PCM-0213803]
Q = Cc1cc(-c2ccc(C)c(S(=O)(=O)N3CCC(C)CC3)c2)n[nH]1 [PCM-0213799]
Qu. Which is greater in IC50, the first item P or the second item Q ? Please respond with the label that marks your chosen entry.
Ans. P

###

Molecular target: UniProt:P16083
Assay: QR2 enzymatic activity assay (menadione/BNAH), fluorescence readout
Format: biochemical
Design: purchased Sigma-Aldrich
measure-name: IC50 (µM)

// below: answered compounds
| line-notation | unit-of-measure | value-observed |
| --- | --- | --- |
| CCOC(=O)c1c(S(=O)(=O)N(CC)c2cccc(C)c2)c(C)n(C)c1C | µM | 3.59 |
| Cc1cc(-c2ccc(C)c(S(=O)(=O)NCc3cccnc3)c2)on1 | µM | 2.72 |
| Cc1ccn2cc(-c3ccc(C)c(S(=O)(=O)N4CCCC4)c3)nc2c1 | µM | 0.51 |
| Cc1ccc(-c2nnc(-c3ccccc3)o2)cc1S(=O)(=O)N1CCC(C)CC1 | µM | 5.97 |

I = Cc1ccc(-c2cn3cccc(C)c3n2)cc1S(=O)(=O)N1CCN(C)CC1
II = Cc1nc(-c2ccc(C)c(S(=O)(=O)N3CCC(C)CC3)c2)cs1
III = Cc1ccc(-c2cn3cccc(C)c3n2)cc1S(=O)(=O)N1CCCCCC1
IV = Cc1nc(-c2ccc(C)c(S(=O)(=O)N3CCCC3)c2)cs1
Qu. List items by IC50 in falling order. Give the labels in the order requested.
Ans. II, IV, I, III
